Entries and their remaining activity at 50 µM
system tested: HCK (Homo sapiens)
Construct: purchased Reaction Biology Corp
protocol text: P32 radioactive kinase assay (Reaction Biology Corp), HCK activity inhibition
Assay type: biochemical
condition context: 50 μM compound; first of two replicate columns; remaining activity; read-out: % Enzyme Activity (relative to DMSO controls) HCK (50 μM)
Supply the numeric figure in %, leaving out any unit text.

// known answers, use as guide
O=C(Nc1ncc(C(=O)O)s1)c1cc(-c2ccccc2)on1: 106
COc1cc(C(=O)Nc2ncc(C(=O)O)s2)cc(OC)c1OC: 94.1
CCOC(=O)c1cnc(NC(C#N)C2=Cc3cc(Cl)cc(Cl)c3OC2c2ccccc2)s1 (stereo not shown): 75.9

Pending compound:
# remaining activity at 50 µM lookup, item CCOC(=O)c1cnc(NC(=O)/C=C/c2ccccc2)s1
93.6

----------
system tested: HCK (Homo sapiens, UniProt P08631)
Construct: purchased Reaction Biology Corp
Sequence (P08631 whole entry): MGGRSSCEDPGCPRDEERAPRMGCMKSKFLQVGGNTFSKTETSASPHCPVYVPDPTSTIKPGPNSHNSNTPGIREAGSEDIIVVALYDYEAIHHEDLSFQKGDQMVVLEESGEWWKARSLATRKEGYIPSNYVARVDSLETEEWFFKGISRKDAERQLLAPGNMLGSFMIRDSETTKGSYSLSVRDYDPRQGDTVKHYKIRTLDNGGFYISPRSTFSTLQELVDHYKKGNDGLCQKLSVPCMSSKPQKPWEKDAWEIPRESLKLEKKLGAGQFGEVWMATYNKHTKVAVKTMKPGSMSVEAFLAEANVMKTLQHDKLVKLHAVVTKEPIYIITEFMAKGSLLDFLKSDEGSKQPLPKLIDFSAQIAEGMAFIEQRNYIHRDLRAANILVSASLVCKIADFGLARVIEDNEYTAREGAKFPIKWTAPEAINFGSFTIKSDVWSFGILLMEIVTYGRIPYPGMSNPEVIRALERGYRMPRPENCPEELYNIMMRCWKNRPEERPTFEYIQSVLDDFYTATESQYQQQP
protocol text: P32 radioactive kinase assay (Reaction Biology Corp), HCK activity inhibition
Assay type: biochemical
condition context: 1 μM compound; second of two replicate columns; remaining activity; read-out: % Enzyme Activity (relative to DMSO controls) HCK (1 μM)
Entries and their remaining activity at 1 µM
Supply the numeric figure in %, leaving out any unit text.

// known answers, use as guide
CCOC(=O)c1cnc(NC(=O)/C=C/c2ccccc2)s1: 118
CCOC(=O)c1cnc(NC(C#N)c2ccc(B3OC(C)(C)C(C)(C)O3)cc2)s1 (centres unmarked): 99.4

Look up remaining activity at 1 µM with HCK (Homo sapiens, UniProt P08631) for this compound: CCOC(=O)c1cnc(NC(C#N)c2cc(-c3ccccc3)on2)s1 (centres unmarked)
113

Look up remaining activity at 1 µM with HCK (Homo sapiens, UniProt P08631) for this compound: CCOC(=O)c1cnc(NC(=O)c2cc(-c3ccccc3)on2)s1
116

Look up remaining activity at 1 µM with HCK (Homo sapiens, UniProt P08631) for this compound: CCOC(=O)c1cnc(NC(=O)C2=Cc3cc(Cl)cc(Cl)c3OC2c2ccccc2)s1 (centres unmarked)
83.4

----------
system tested: HCK (Homo sapiens)
Construct: purchased Reaction Biology Corp
protocol text: P32 radioactive kinase assay (Reaction Biology Corp), HCK activity inhibition
Type: biochemical
condition context: 50 μM compound; second of two replicate columns; remaining activity; read-out: % Enzyme Activity (relative to DMSO controls) HCK (50 μM)
assay endpoint: remaining activity at 50 µM
Could you give the number and then its unit, please?

CCOC(=O)c1cnc(NC(C#N)c2ccc(B(O)O)cc2)s1 (centres unmarked): 68.5%

# remaining activity at 50 µM lookup, item CCOC(=O)c1cnc(NC(=O)c2cc(-c3ccccc3)on2)s1
117%

# remaining activity at 50 µM lookup, item CCOC(=O)c1cnc(NC(=O)c2cc3cc(Cl)ccc3[nH]c2=O)s1
43.9%

# remaining activity at 50 µM lookup, item CCOC(=O)c1cnc(NC(=O)C2=Cc3cc(Cl)cc(Cl)c3OC2c2ccccc2)s1 (centres unmarked)
5.97%

# remaining activity at 50 µM lookup, item CCOC(=O)c1cnc(NC(=O)c2cc3cc(Cl)ccc3oc2=O)s1
45%

----------
system tested: HCK (Homo sapiens, UniProt P08631)
Construct: purchased Reaction Biology Corp
protocol text: P32 radioactive kinase assay (Reaction Biology Corp), HCK activity inhibition
Assay type: biochemical
condition context: 1 μM compound; second of two replicate columns; remaining activity; read-out: % Enzyme Activity (relative to DMSO controls) HCK (1 μM)
assay endpoint: remaining activity at 1 µM (%)
Supply the numeric figure in %, leaving out any unit text.

CCOC(=O)c1cnc(NC(=O)c2cc3cc(Cl)ccc3oc2=O)s1 [Example 7]: 114
CCOC(=O)c1cnc(NC(=O)c2cc(Cl)cc(Cl)c2)s1 [Example 20]: 110
CCOC(=O)c1cnc(NC(C#N)C2=Cc3cc(Cl)cc(Cl)c3OC2c2ccccc2)s1 (stereo not shown) [Example 12]: 113
CCOC(=O)c1cnc(NC(=O)c2ccc(B3OC(C)(C)C(C)(C)O3)cc2)s1 [Example 9]: 115
COc1cc(C(=O)Nc2ncc(C(=O)O)s2)cc(OC)c1OC [Example 19]: 100
CCOC(=O)c1cnc(NC(C#N)c2ccc(B(O)O)cc2)s1 (stereo not shown) [Example 11]: 103
CCOC(=O)c1cnc(NC(=O)c2cc3cc(Cl)ccc3[nH]c2=O)s1 [Example 8]: 116
O=C(Nc1ncc(C(=O)O)s1)c1cc(-c2ccccc2)on1 [Example 18]: 95

Look up remaining activity at 1 µM with HCK (Homo sapiens, UniProt P08631) for this compound: O=C(Nc1ncc(C(=O)O)s1)c1cc(Cl)cc(Cl)c1 [Example 21]
100

Look up remaining activity at 1 µM with HCK (Homo sapiens, UniProt P08631) for this compound: CCOC(=O)c1cnc(NC(=O)c2cc(OC)c(OC)c(OC)c2)s1 [Example 16]
94

----------
system tested: HCK (Homo sapiens)
Construct: purchased Reaction Biology Corp
protocol text: P32 radioactive kinase assay (Reaction Biology Corp), HCK activity inhibition
Assay type: biochemical
condition context: 50 μM compound; second of two replicate columns; remaining activity; read-out: % Enzyme Activity (relative to DMSO controls) HCK (50 μM)
Protocol: HCK activity inhibition efficiency for the inhibitors. Inhibiting efficiency was performed in Reaction Biology with Corp P32 radioactive kinase assay, comparing the compounds of the invention with dasatinib for HCK, Bcr-Abl and other binding kinases identified in reference. […] HCK inhibiting efficiency was performed in Reaction Biology with Corp P32 radioactive kinase assay. […] Reactions were spotted onto P81 ion exchange paper, and detected kinase activity was measured by filter-binding method.
assay endpoint: remaining activity at 50 µM (%)
Supply the numeric figure in %, leaving out any unit text.

CCOC(=O)c1cnc(NC(C#N)c2cc(-c3ccccc3)on2)s1 (stereo not shown) [Example 13]: 65.5

# remaining activity at 50 µM lookup, item CCOC(=O)c1cnc(NC(=O)/C=C/c2ccccc2)s1 [Example 14]
94.2

# remaining activity at 50 µM lookup, item COc1cc(C(=O)Nc2ncc(C(=O)O)s2)cc(OC)c1OC [Example 19]
90.7

# remaining activity at 50 µM lookup, item CCOC(=O)c1cnc(NC(=O)c2cc(Cl)cc(Cl)c2)s1 [Example 20]
97.8

# remaining activity at 50 µM lookup, item CCOC(=O)c1cnc(NC(=O)c2ccc(B3OC(C)(C)C(C)(C)O3)cc2)s1 [Example 9]
86.3

# remaining activity at 50 µM lookup, item O=C(Nc1ncc(C(=O)O)s1)c1cc(-c2ccccc2)on1 [Example 18]
113

----------
Entries and their remaining activity at 50 µM
system tested: HCK (Homo sapiens, UniProt P08631)
Construct: purchased Reaction Biology Corp
protocol text: P32 radioactive kinase assay (Reaction Biology Corp), HCK activity inhibition
Assay type: biochemical
condition context: 50 μM compound; first of two replicate columns; remaining activity; read-out: % Enzyme Activity (relative to DMSO controls) HCK (50 μM)
Supply the numeric figure in %, leaving out any unit text.

CCOC(=O)c1cnc(NC(=O)c2cc3cc(Cl)ccc3oc2=O)s1: 42.8
CCOC(=O)c1cnc(NC(=O)c2cc3cc(Cl)ccc3[nH]c2=O)s1: 41.2
CCOC(=O)c1cnc(NC(=O)c2cc(OC)c(OC)c(OC)c2)s1: 89.8
CCOC(=O)c1cnc(NC(C#N)c2cc(-c3ccccc3)on2)s1 (stereo not drawn): 68.4
CCOC(=O)c1cnc(NC(=O)c2cc(-c3ccccc3)on2)s1: 112

# remaining activity at 50 µM lookup, item CCOC(=O)c1cnc(NC(=O)c2ccc(B3OC(C)(C)C(C)(C)O3)cc2)s1
95

----------
system tested: HCK (Homo sapiens, UniProt P08631)
Construct: purchased Reaction Biology Corp
protocol text: P32 radioactive kinase assay (Reaction Biology Corp), HCK activity inhibition
Type: biochemical
condition context: 50 μM compound; second of two replicate columns; remaining activity; read-out: % Enzyme Activity (relative to DMSO controls) HCK (50 μM)
Description: HCK activity inhibition efficiency for the inhibitors. Inhibiting efficiency was performed in Reaction Biology with Corp P32 radioactive kinase assay, comparing the compounds of the invention with dasatinib for HCK, Bcr-Abl and other binding kinases identified in reference. […] HCK inhibiting efficiency was performed in Reaction Biology with Corp P32 radioactive kinase assay. […] Reactions were spotted onto P81 ion exchange paper, and detected kinase activity was measured by filter-binding method.
assay endpoint: remaining activity at 50 µM (%)
Supply the numeric figure in %, leaving out any unit text.

// known answers, use as guide
CCOC(=O)c1cnc(NC(C#N)c2ccc(B3OC(C)(C)C(C)(C)O3)cc2)s1 (stereo not shown): 96.5
CCOC(=O)c1cnc(NC(C#N)C2=Cc3cc(Cl)cc(Cl)c3OC2c2ccccc2)s1 (stereo not shown): 79.5
O=C(Nc1ncc(C(=O)O)s1)c1cc(Cl)cc(Cl)c1: 77.7

Pending compound:
# remaining activity at 50 µM lookup, item CCOC(=O)c1cnc(NC(=O)c2cc(OC)c(OC)c(OC)c2)s1
85
